test system: RARg homodimer (NR concentration 270 nM); experiment: PBM binding z-score (relative to random genomic background probes); higher = stronger binding; sequences stand for … in GC…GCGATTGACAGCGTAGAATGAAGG
Threshold rule: PBM binding z-score greater than or equal to 5 is YES; below that, NO.

Some solved cases for reference:
sequenceRecord | classAssignment
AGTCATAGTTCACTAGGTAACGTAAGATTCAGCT | NO
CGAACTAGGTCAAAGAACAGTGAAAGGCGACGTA | NO
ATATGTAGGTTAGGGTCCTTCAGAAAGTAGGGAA | NO
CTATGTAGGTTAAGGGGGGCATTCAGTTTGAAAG | NO

Ask | Is PBM binding z-score for "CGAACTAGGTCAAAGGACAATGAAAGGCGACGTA" at or above 5?
Reply | NO
